Measured values drawn from PubChem BioAssay (NCI) for this set.

For each entry below, report its TGI value.
Test system: ACHN renal
Assay: NCI tumour cell line growth inhibition, 48 h
One number for each entry, in µM.

molecule: Oc1ccccc1-c1nn(CNc2ccccc2Cl)c(=S)o1
unit of measurement: µM
TGI: 38.5
--
molecule: O=c1cc(/C=C/c2ccccc2)[nH]c2cc3c(cc12)OCO3
unit of measurement: µM
TGI: 28.3
--
molecule: O=C(N/N=C/c1ccccc1O)c1ccccc1
unit of measurement: µM
TGI: 54.2
--
molecule: CC(C)(C)OC(=O)NCCCCCCCn1c2c(c3ccccc3c1=O)C(=O)c1ccccc1-2
unit of measurement: µM
TGI: 90.4
--
molecule: CC(C)(C)c1cc(C=C(C#N)C#N)cc(C(C)(C)C)c1O
unit of measurement: µM
TGI: 20.2

Here are 6 molecules. What values of TGI were reported for them?
1. CCCCn1c(-c2ccc([N+](=O)[O-])cc2)cs/c1=N/N=C1\C(=O)Nc2ccc(Br)cc21
2. CCCCCCCCCCCCCCCC[N+]1(C)CCOCC1
3. CN(C)CCC(=O)/C=C\c1ccccc1
4. COc1ccc(CN2CCC/C=C/CC(Cl)(Cl)C2=O)cc1
5. O=C1CCCCN1CCCCC#Cc1cccc(C#Cc2cccnc2)c1
6. C=C(CNCCc1ccc(O)cc1)[C@@H]1CC[C@]2(COC3CCCCO3)CC[C@]3(C)[C@H](CC[C@@H]4[C@@]5(C)CCC(NCCO)C(C)(C)[C@@H]5CC[C@]43C)[C@@H]12 (some centres not stated)

[31.5, 13.9, 32.5, 78.8, 21.7, 3.04]
